pKi: −log10 of the molar value.
Before we begin, note that these pKi values for Carbonic anhydrase 1 (Homo sapiens) originate from several publications.

MOLECULE: C=CCOc1ccc2ccc(=O)oc2c1
pKi: 4.14
--
MOLECULE: NS(=O)(=O)c1cccc(NC(=O)NCCc2ccccc2)c1
pKi: 6.53
--
MOLECULE: NS(=O)(=O)c1ccc(CCOC(=O)CNCCNCC(=O)O)cc1
pKi: 6.00
--
MOLECULE: CC(=O)N1N=C(c2cccc(OS(N)(=O)=O)c2)CC1c1ccc(F)cc1 (centres undefined)
pKi: 7.17
--
MOLECULE: NS(=O)(=O)c1nc2ccc(OCCOC(=O)CN(CC(=O)O)CC(=O)O)cc2s1
pKi: 7.36
--
MOLECULE: NS(=O)(=O)c1ccc(COC(=O)CN(CCOCCOCCN(CC(=O)O)CC(=O)O)CC(=O)O)cc1
pKi: 6.30
--
MOLECULE: CC(C)c1cc(-c2ccccc2)cc(C(C)C)[n+]1CC(=O)Nc1ccc(S(N)(=O)=O)cc1
pKi: 4.82
--
MOLECULE: NS(=O)(=O)c1ccc(NC(=O)CN(CCOCCOCCN(CC(=O)O)CC(=O)Nc2ccc(S(N)(=O)=O)cc2Br)CC(=O)O)c(Br)c1
pKi: 7.07
--
MOLECULE: Cc1cc(C)[n+](CC(=O)OCc2ccc(S(N)(=O)=O)cc2)c(C)c1
pKi: 5.74

----------
Reported pKi against Carbonic anhydrase 1 (Homo sapiens, UniProt P00915), gathered from multiple publications, appears below.
pKi: −log10 of the molar value.
Label yes (1) when pKi >= 5; otherwise no (0).

COMPOUND: CC(=O)OC[C@H]1O[C@@H](SNCCc2ccc(S(N)(=O)=O)cc2)[C@H](OC(C)=O)[C@@H](OC(C)=O)[C@@H]1O[C@H]1O[C@H](COC(C)=O)[C@@H](OC(C)=O)[C@H](OC(C)=O)[C@H]1OC(C)=O
STUDY_TARGET: Carbonic anhydrase 1 (Homo sapiens, UniProt P00915)
CLASS_ASSIGNMENT: yes (1)

COMPOUND: NS(=O)(=O)c1ccc(NC(=O)CNCC(=O)O)c(F)c1
STUDY_TARGET: Carbonic anhydrase 1 (Homo sapiens, UniProt P00915)
CLASS_ASSIGNMENT: yes (1)

COMPOUND: NC(=O)CCC(NC(=S)Nc1ccc(S(N)(=O)=O)cc1)C(=O)O (stereo not drawn)
STUDY_TARGET: Carbonic anhydrase 1 (Homo sapiens, UniProt P00915)
CLASS_ASSIGNMENT: yes (1)

COMPOUND: CC(C)(C)OC(=O)N[C@@H](CC(=O)Nc1ccc2c(c1)B(O)OC2)C(=O)Nc1ccc2c(c1)B(O)OC2
STUDY_TARGET: Carbonic anhydrase 1 (Homo sapiens, UniProt P00915)
CLASS_ASSIGNMENT: yes (1)

COMPOUND: COC(=O)[C@H]1O[C@@H](SNCCc2ccc(S(N)(=O)=O)cc2)[C@H](OC(C)=O)[C@@H](OC(C)=O)[C@H]1OC(C)=O
STUDY_TARGET: Carbonic anhydrase 1 (Homo sapiens, UniProt P00915)
CLASS_ASSIGNMENT: yes (1)

COMPOUND: O=S(=O)(NO)C(F)(F)F
STUDY_TARGET: Carbonic anhydrase 1 (Homo sapiens, UniProt P00915)
CLASS_ASSIGNMENT: no (0)

COMPOUND: Nc1nc(-c2ccc(NC(=O)CCC(=O)O)cc2)cn2c(=O)n(-c3ccccc3)nc12
STUDY_TARGET: Carbonic anhydrase 1 (Homo sapiens, UniProt P00915)
CLASS_ASSIGNMENT: no (0)

COMPOUND: Cc1cc(-c2ccccc2)cc(C)[n+]1CC(=O)Nc1c(S(N)(=O)=O)cc(S(N)(=O)=O)c(Cl)c1Cl
STUDY_TARGET: Carbonic anhydrase 1 (Homo sapiens, UniProt P00915)
CLASS_ASSIGNMENT: yes (1)

COMPOUND: CCCCCOS(N)(=O)=O
STUDY_TARGET: Carbonic anhydrase 1 (Homo sapiens, UniProt P00915)
CLASS_ASSIGNMENT: yes (1)

COMPOUND: NS(=O)(=O)c1nc2ccc(NC(=O)CN(CCOCCOCCN(CC(=O)O)CC(=O)O)CC(=O)O)cc2s1
STUDY_TARGET: Carbonic anhydrase 1 (Homo sapiens, UniProt P00915)
CLASS_ASSIGNMENT: yes (1)

COMPOUND: C/C=C/CN1C(=O)c2ccccc2S1(=O)=O
STUDY_TARGET: Carbonic anhydrase 1 (Homo sapiens, UniProt P00915)
CLASS_ASSIGNMENT: no (0)

COMPOUND: NS(=O)(=O)c1ccc(-[n+]2c(-c3ccccc3)cc(-c3ccccc3)cc2-c2ccccc2)cc1
STUDY_TARGET: Carbonic anhydrase 1 (Homo sapiens, UniProt P00915)
CLASS_ASSIGNMENT: no (0)

COMPOUND: CC(C)c1cc(-c2ccccc2)cc(C(C)C)[n+]1CC(=O)Oc1ccc2nc(S(N)(=O)=O)sc2c1
STUDY_TARGET: Carbonic anhydrase 1 (Homo sapiens, UniProt P00915)
CLASS_ASSIGNMENT: yes (1)

COMPOUND: CCCN(CCC)S(=O)(=O)c1ccc(C(=O)N[C@@H](CCSC)C(N)=O)cc1
STUDY_TARGET: Carbonic anhydrase 1 (Homo sapiens, UniProt P00915)
CLASS_ASSIGNMENT: no (0)

COMPOUND: C[C@H](CCC(=O)NCCc1ccc(S(N)(=O)=O)cc1)[C@H]1CC[C@H]2[C@@H]3[C@H](O)C[C@@H]4C[C@H](O)CC[C@]4(C)[C@H]3C[C@H](O)[C@]12C
STUDY_TARGET: Carbonic anhydrase 1 (Homo sapiens, UniProt P00915)
CLASS_ASSIGNMENT: yes (1)

----------
Carbonic anhydrase 1 (Homo sapiens) Ki, compiled from various sources.

SMILES_INPUT: CCCOc1ccc2c(c1)CCN=C2c1ccc(S(N)(=O)=O)cc1
SIGN_QUALIFIER: =
Ki, µM: 0.0831
//
SMILES_INPUT: OB1OCc2ccc(NC(=S)Nc3ccc(F)cc3)cc21
SIGN_QUALIFIER: =
Ki, µM: 0.355
//
SMILES_INPUT: O=C(N[C@@H]1C[C@H](C(=O)NO)N(S(=O)(=O)c2ccc(Cl)c(Cl)c2)C1)c1cccs1
SIGN_QUALIFIER: >
Ki, µM: 100
//
SMILES_INPUT: O=S1(=O)C=Cc2ccc(OCc3ccccc3)cc2O1
SIGN_QUALIFIER: >
Ki, µM: 10
//
SMILES_INPUT: CN(CC(=O)Nc1ccccc1S(N)(=O)=O)C(=N)N
SIGN_QUALIFIER: =
Ki, µM: 20.3
//
SMILES_INPUT: O=C(O)c1ccc([N+](=O)[O-])cc1
SIGN_QUALIFIER: =
Ki, µM: 8.8

----------
Several publications report Ki on Carbonic anhydrase 1 (Homo sapiens, UniProt P00915); those values are gathered here.
MEASURED_PROPERTY: Ki (nM)

COMPOUND: NS(=O)(=O)c1ccc(CNC(=O)CN2C(=O)NC3(CCCCC3)C2=O)cc1
SIGN_QUALIFIER: =
MEASUREMENT: 470

COMPOUND: NS(=O)(=O)c1ccccc1NC(=O)CN(CCN(CCN(CC(=O)O)CC(=O)Nc1ccccc1S(N)(=O)=O)CC(=O)O)CC(=O)O
SIGN_QUALIFIER: =
MEASUREMENT: 5400

COMPOUND: CN(C)CC/N=C(\S)Nc1ccc(S(=O)(=O)NCCc2ccc(S(N)(=O)=O)cc2)cc1
SIGN_QUALIFIER: =
MEASUREMENT: 308

COMPOUND: O=C(CNS(=O)(=O)c1c(F)c(F)c(F)c(F)c1F)NO
SIGN_QUALIFIER: =
MEASUREMENT: 7

COMPOUND: CCCCCCC(CCCC)C(=O)O (stereo not drawn)
SIGN_QUALIFIER: =
MEASUREMENT: 101000

COMPOUND: CCOc1nc(Nc2ccc(S(N)(=O)=O)cc2)nc(OCC)n1
SIGN_QUALIFIER: =
MEASUREMENT: 78

COMPOUND: CCOc1ccc(S(N)(=O)=O)cc1-c1nnc2c(n1)c(C)nn2-c1ccc(C)cc1
SIGN_QUALIFIER: =
MEASUREMENT: 4490

COMPOUND: C[C@H](CCC(=O)Nc1c(S(N)(=O)=O)cc(S(N)(=O)=O)c(Cl)c1Cl)[C@H]1CC[C@H]2[C@@H]3CC[C@@H]4C[C@H](O)CC[C@]4(C)[C@H]3CC[C@]12C
SIGN_QUALIFIER: =
MEASUREMENT: 130

COMPOUND: CC(C)(C)c1ccc(CNCCc2ccc(S(N)(=O)=O)cc2)cc1
SIGN_QUALIFIER: =
MEASUREMENT: 50.3

COMPOUND: C=CCN1C(=O)c2ccccc2S1(=O)=O
SIGN_QUALIFIER: >
MEASUREMENT: 50000

COMPOUND: COc1cc(/C=N/Cc2ccc(S(N)(=O)=O)cc2)ccc1OCc1cn(CCCOc2ccc3ccc(=O)oc3c2)nn1
SIGN_QUALIFIER: >
MEASUREMENT: 10000

COMPOUND: Cc1c(-c2nn(-c3ccccc3)cc2/C=N/O)nnn1-c1ccc(F)cc1
SIGN_QUALIFIER: >
MEASUREMENT: 100000

COMPOUND: O=C(NO)[C@H]1C[C@H](NS(=O)(=O)c2ccc(-c3ccccc3)cc2)CN1S(=O)(=O)c1ccc([N+](=O)[O-])cc1
SIGN_QUALIFIER: =
MEASUREMENT: 52900

COMPOUND: COc1cccc(-c2noc(-c3csc(S(N)(=O)=O)c3)n2)c1
SIGN_QUALIFIER: =
MEASUREMENT: 5.4

COMPOUND: O=C(O)c1ccccc1S(=O)(=O)NO
SIGN_QUALIFIER: =
MEASUREMENT: 25000

COMPOUND: Cc1c(CC(=O)Nc2ccc(S(N)(=O)=O)cc2)c(=O)oc2cc3occ(-c4ccc(Cl)cc4)c3cc12
SIGN_QUALIFIER: =
MEASUREMENT: 6830

COMPOUND: Cn1ccc(=O)n(C)c1=O
SIGN_QUALIFIER: =
MEASUREMENT: 316000

COMPOUND: O=C1c2ccccc2S(=O)(=O)N1Cc1ccccc1Br
SIGN_QUALIFIER: >
MEASUREMENT: 50000

COMPOUND: NS(=O)(=O)c1ccc(C/N=C/c2cccc(OCc3cn(CCCOc4ccc5ccc(=O)oc5c4)nn3)c2)cc1
SIGN_QUALIFIER: >
MEASUREMENT: 10000

COMPOUND: CCOc1ccc(S(=O)(=O)NCCN2CCOCC2)cc1-c1nnc2c(n1)c(C)nn2C
SIGN_QUALIFIER: >
MEASUREMENT: 10000

COMPOUND: COC(=O)C1=Cc2ccc(Cl)cc2OC(=O)C1
SIGN_QUALIFIER: >
MEASUREMENT: 100000

COMPOUND: C[C@H](NC(=S)Nc1ccc(S(N)(=O)=O)cc1)C(=O)O
SIGN_QUALIFIER: =
MEASUREMENT: 54

COMPOUND: CC1(C)O[C@@H]2[C@@H](CO[C@@]3(C(=O)NNS(N)(=O)=O)OC(C)(C)O[C@@H]23)O1
SIGN_QUALIFIER: >
MEASUREMENT: 100000

COMPOUND: COC(=O)[C@H](C)NS(=O)(=O)N[C@@H](C)C(=O)OC
SIGN_QUALIFIER: >
MEASUREMENT: 200000

COMPOUND: NS(=O)(=O)c1ccc(NC(=O)CN(CCN(CCN(CC(=O)O)CC(=O)Nc2ccc(S(N)(=O)=O)cc2I)CC(=O)O)CC(=O)O)c(I)c1
SIGN_QUALIFIER: =
MEASUREMENT: 70

COMPOUND: O=C1Nc2c(F)cccc2S(=O)(=O)N1
SIGN_QUALIFIER: =
MEASUREMENT: 547

COMPOUND: NS(=O)(=O)c1ccc(NC(=O)CNCC(=O)O)c(I)c1
SIGN_QUALIFIER: =
MEASUREMENT: 515

COMPOUND: C[C@H](CCC(=O)/N=c1\sc(S(N)(=O)=O)nn1C)[C@H]1CC[C@H]2[C@@H]3CC[C@@H]4C[C@H](O)CC[C@]4(C)[C@H]3CC[C@]12C
SIGN_QUALIFIER: =
MEASUREMENT: 205

COMPOUND: NS(=O)(=O)c1ccc(/N=C(S)/N=C2/C=CC(=C3c4ccc(O)cc4Oc4cc(O)ccc43)C(C(=O)O)=C2)c(I)c1
SIGN_QUALIFIER: =
MEASUREMENT: 1070

COMPOUND: OB1OCc2ccc(NC(=S)Nc3ccccc3)cc21
SIGN_QUALIFIER: =
MEASUREMENT: 532

COMPOUND: Nc1nc(-c2ccc(NC(=O)CCNC(=O)c3ccc(S(N)(=O)=O)cc3)cc2)cn2c(=O)n(-c3ccccc3)nc12
SIGN_QUALIFIER: =
MEASUREMENT: 51.5

COMPOUND: C[C@]12CC[C@@H]3c4ccc(C(F)(F)S(N)(=O)=O)cc4CC[C@H]3[C@@H]1CCC2=O
SIGN_QUALIFIER: =
MEASUREMENT: 96

COMPOUND: NCCCCCN
SIGN_QUALIFIER: =
MEASUREMENT: 13300

COMPOUND: CC(=O)c1c(O)c2ccccc2oc1=O
SIGN_QUALIFIER: >
MEASUREMENT: 10000

COMPOUND: CC(=O)N1N=C(c2ccc(OS(N)(=O)=O)cc2)CC1c1cccc2ccccc12 (stereo not drawn)
SIGN_QUALIFIER: =
MEASUREMENT: 3300

COMPOUND: Nc1nc(-c2ccc(OCCNC(=O)c3ccc(S(N)(=O)=O)cc3)cc2)cn2c(=O)n(-c3ccccc3)nc12
SIGN_QUALIFIER: =
MEASUREMENT: 934

COMPOUND: NS(=O)(=O)c1cc(S(N)(=O)=O)c(NC(=O)CN(CCOCCOCCN(CC(=O)O)CC(=O)O)CC(=O)O)cc1Cl
SIGN_QUALIFIER: =
MEASUREMENT: 93

COMPOUND: CCn1cc(S(N)(=O)=O)c2cc(NC(=O)c3cc(-c4cc(Cl)cc(Cl)c4)nc4ccc(OC)cc34)ccc21
SIGN_QUALIFIER: >
MEASUREMENT: 100000
